B1: SEC22B (parent)
chain: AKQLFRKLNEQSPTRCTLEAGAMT

# Variants of: B1
# PROTOCOL_NOTES: protein stability index of a GFP-peptide fusion (GPS, HEK-293T) (PSI 1-6); higher = more stable;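 further: lentivirally expressed fusions sorted by FACS into six bins by GFP to DsRed ratio, PSI derived from sequencing read proportions per bin multiplied by bin number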
# CONDITION_PARAMETERS: c terminus: a fixed tail appended
Record true (1) whenever protein stability index is at 3 or higher; record false (0) when lower.

Worked examples follow.
AKQLFRKLNEQSPTRCMLEAGAMT [T17M]; false (0)
AKQLFRKLNEQSPTRCTGEAGAMT [L18G]; false (0)
AKQCFRKLNEQSPTRCTLEAGAMT [L4C]; false (0)
AKQLFRKLNEQSPTRETLEAGAMT [C16E]; true (1)
AKQLFRKLNLQSPTRCTLEAGAMT [E10L]; false (0)

Please look at the following variant next.
Request: Test whether the variant CKQLFRKLNEQSPTRCTLEAGAMT [A1C] records protein stability index of 3 or higher.
Response: false (0)
